From: patent US9604996B2

study-target: human adenosine A2b receptor (Homo sapiens, UniProt P29275)
Sequence (P29275 1-332): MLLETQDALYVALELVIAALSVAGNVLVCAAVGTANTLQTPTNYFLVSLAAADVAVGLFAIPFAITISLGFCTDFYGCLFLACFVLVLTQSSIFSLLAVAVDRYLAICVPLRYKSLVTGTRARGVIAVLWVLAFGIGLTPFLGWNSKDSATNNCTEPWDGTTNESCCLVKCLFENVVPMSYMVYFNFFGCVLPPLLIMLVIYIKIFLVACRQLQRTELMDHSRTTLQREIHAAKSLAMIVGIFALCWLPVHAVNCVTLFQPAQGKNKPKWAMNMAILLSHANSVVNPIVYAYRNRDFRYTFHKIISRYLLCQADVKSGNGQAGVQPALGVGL
protocol-summary: Cellular reporter gene (CRE-luciferase) A2b receptor antagonist assay in recombinant CHO-K1 cells stimulated with NECA
test-conditions: recombinant CHO-K1 cell line, co-incubation with EC50 concentration of NECA, 3 hours, in some cases means, rounded to two significant digits
Item-by-item account of pIC50
Lab note — pIC50 values are minus log10 of concentrations in M.

// solved cases for pIC50 follow
Data request: Identify the reported pIC50 for the following entry. Cc1c(C(=O)N2CCC(O)CC2)sc2c1c(=O)n(CCc1ccccc1)c(=O)n2CCOC(F)(F)F
Data returned: 8.00

Data request: Identify the reported pIC50 for the following entry. CCCn1c(=O)c2c(C)c(C(=O)N3CCC(O)(CO)CC3)sc2n(CCC(F)(F)F)c1=O
Data returned: 7.12

More entries:
Data request: Identify the reported pIC50 for the following entry. Cc1c(C(=O)N2CCC(O)(C(F)(F)F)CC2)sc2c1c(=O)n(CCc1ccccc1)c(=O)n2CCC(F)(F)F
Data returned: 7.22

Data request: Identify the reported pIC50 for the following entry. Cc1c(C(=O)N2CCC(O)CC2)sc2c1c(=O)n(CC(C)c1ccccc1)c(=O)n2CCC(F)(F)F (single isomer, unassigned; enantiomer 1) [Example 44]
Data returned: 8.34

====

study-target: human adenosine A2b receptor (Homo sapiens, UniProt P29275)
Sequence (P29275 1-332): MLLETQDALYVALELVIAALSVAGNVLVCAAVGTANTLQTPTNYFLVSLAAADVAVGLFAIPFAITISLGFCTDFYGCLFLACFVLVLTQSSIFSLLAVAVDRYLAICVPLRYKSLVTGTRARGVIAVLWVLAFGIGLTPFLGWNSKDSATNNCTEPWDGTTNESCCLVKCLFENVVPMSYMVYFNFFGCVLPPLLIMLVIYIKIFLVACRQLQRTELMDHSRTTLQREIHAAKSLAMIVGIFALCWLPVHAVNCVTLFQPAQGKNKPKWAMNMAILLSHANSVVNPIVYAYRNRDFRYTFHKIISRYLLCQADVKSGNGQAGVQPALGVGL
protocol-summary: Cellular reporter gene (CRE-luciferase) A2b receptor antagonist assay in recombinant CHO-K1 cells stimulated with NECA
test-conditions: recombinant CHO-K1 cell line, co-incubation with EC50 concentration of NECA, 3 hours, in some cases means, rounded to two significant digits
Item-by-item account of log10 IC50
Friendly reminder: values = log10 of IC50, unit nM.

// solved cases for log10 IC50 follow
Data request: Identify the reported log10 IC50 for the following entry. CCn1c(=O)c2c(C)c(C(=O)N3CCC(O)CC3)sc2n(CCC(F)=C(F)F)c1=O
Data returned: 2.49

Data request: Identify the reported log10 IC50 for the following entry. Cc1c(C(=O)N2CCC(O)(CO)CC2)sc2c1c(=O)n(CCc1ccccc1)c(=O)n2CCC(F)(F)F
Data returned: 1.30

Data request: Identify the reported log10 IC50 for the following entry. Cc1c(C(=O)N2CCC(O)CC2)sc2c1c(=O)n(CCc1cccnc1)c(=O)n2CCC=C(F)F
Data returned: 1.58

Data request: Identify the reported log10 IC50 for the following entry. Cc1c(C(=O)N2CCC(O)CC2)sc2c1c(=O)n(CC(C)c1ccccc1)c(=O)n2CCC(F)(F)F (racemic) [Example 43]
Data returned: 0.80

Data request: Identify the reported log10 IC50 for the following entry. Cc1c(C(=O)N2CCC(O)CC2)sc2c1c(=O)n(CCc1ccccc1)c(=O)n2CCC=C(F)F
Data returned: 1.64

More entries:
Data request: Identify the reported log10 IC50 for the following entry. CCCn1c(=O)c2c(C)c(C(=O)N3CCC(O)(CO)CC3)sc2n(CCOC(F)(F)F)c1=O
Data returned: 1.43

Data request: Identify the reported log10 IC50 for the following entry. Cc1c(C(=O)N2CCC(O)CC2)sc2c1c(=O)n(CC(C)(C)c1ccccc1)c(=O)n2CCC(F)(F)F
Data returned: 2.18

Data request: Identify the reported log10 IC50 for the following entry. CCCn1c(=O)c2c(C(F)F)c(C(=O)N3CCC(O)CC3)sc2n(CCC(F)(F)F)c1=O
Data returned: 1.76

Data request: Identify the reported log10 IC50 for the following entry. CCn1c(=O)c2c(C)c(C(=O)N3CCC(O)CC3)sc2n(CC2CC2(F)F)c1=O (racemic)
Data returned: 2.57

Data request: Identify the reported log10 IC50 for the following entry. CCn1c(=O)c2c(C)c(C(=O)N3CCC(O)C(O)C3)sc2n(CCC(F)(F)F)c1=O (racemic) [Example 116]
Data returned: 2.30

Data request: Identify the reported log10 IC50 for the following entry. Cc1c(C(=O)N2CCC(O)CC2)sc2c1c(=O)n(CC1(c3ccccc3)CC1)c(=O)n2CCC(F)(F)F
Data returned: 1.83

Data request: Identify the reported log10 IC50 for the following entry. Cc1c(C(=O)N2CCC(O)(CO)CC2)sc2c1c(=O)n(CCc1ccccc1)c(=O)n2CCOC(F)(F)F
Data returned: 1.15

Data request: Identify the reported log10 IC50 for the following entry. CCn1c(=O)c2c(C(F)(F)F)c(C(=O)N3CCNC(=O)C3)sc2n(CCC(F)(F)F)c1=O
Data returned: 1.94

Data request: Identify the reported log10 IC50 for the following entry. CCn1c(=O)c2c(C(C)F)c(C(=O)N3CCNC(=O)C3)sc2n(CCC(F)(F)F)c1=O (single isomer, unassigned) [Example 148]
Data returned: 2.38

Data request: Identify the reported log10 IC50 for the following entry. CCn1c(=O)c2c(C)c(C(=O)N3CCC(O)(CO)CC3)sc2n(CCC(F)(F)F)c1=O
Data returned: 2.04

====

study-target: human adenosine A2b receptor (Homo sapiens)
Sequence (P29275 1-332): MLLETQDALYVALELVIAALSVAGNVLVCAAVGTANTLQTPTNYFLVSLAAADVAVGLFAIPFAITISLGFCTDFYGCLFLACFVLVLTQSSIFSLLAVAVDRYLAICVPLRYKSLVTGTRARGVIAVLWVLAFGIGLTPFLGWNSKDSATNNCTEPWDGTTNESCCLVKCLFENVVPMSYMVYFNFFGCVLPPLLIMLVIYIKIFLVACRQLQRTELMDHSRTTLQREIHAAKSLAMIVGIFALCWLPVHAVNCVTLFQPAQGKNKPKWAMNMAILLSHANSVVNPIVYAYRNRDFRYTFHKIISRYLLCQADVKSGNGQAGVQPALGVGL
protocol-summary: Cellular reporter gene (CRE-luciferase) A2b receptor antagonist assay in recombinant CHO-K1 cells stimulated with NECA
test-conditions: recombinant CHO-K1 cell line, co-incubation with EC50 concentration of NECA, 3 hours, in some cases means, rounded to two significant digits
readout-name: IC50
Please append the unit to your numeric answer.

// solved cases for IC50 follow
Data request: Identify the reported IC50 for the following entry. Cc1c(C(=O)N2CCC(C)(O)CC2)sc2c1c(=O)n(CCc1ccccc1)c(=O)n2CCC(F)(F)F
Data returned: 13 nM

Data request: Identify the reported IC50 for the following entry. CCn1c(=O)c2c(C)c(C(=O)N3CCC(O)C(O)C3)sc2n(CCC(F)(F)F)c1=O (single isomer, unassigned) [Example 121]
Data returned: 180 nM

Data request: Identify the reported IC50 for the following entry. Cc1c(C(=O)N2CCC(O)CC2)sc2c1c(=O)n(CCn1ccnc1)c(=O)n2CCC(F)(F)F
Data returned: 250 nM

Continue with the next compound.
Data request: Identify the reported IC50 for the following entry. CCn1c(=O)c2c(C)c(C(=O)N3CCNC(=O)C3(C)C)sc2n(CCC(F)(F)F)c1=O
Data returned: 140 nM

====

study-target: human adenosine A2b receptor (Homo sapiens, UniProt P29275)
protocol-summary: Cellular reporter gene (CRE-luciferase) A2b receptor antagonist assay in recombinant CHO-K1 cells stimulated with NECA
test-conditions: recombinant CHO-K1 cell line, co-incubation with EC50 concentration of NECA, 3 hours, in some cases means, rounded to two significant digits
Item-by-item account of IC50
Your answer should be a plain number; it is taken to be in nM.

// solved cases for IC50 follow
Data request: Identify the reported IC50 for the following entry. COC(Cn1c(=O)c2c(C)c(C(=O)N3CCC(O)CC3)sc2n(CCC(F)(F)F)c1=O)c1ccccc1 (single isomer, unassigned; enantiomer 1) [Example 48]
Data returned: 59

Data request: Identify the reported IC50 for the following entry. COCCn1c(=O)c2c(C)c(C(=O)N3CCC(O)CC3)sc2n(CCC(F)(F)F)c1=O
Data returned: 120

Data request: Identify the reported IC50 for the following entry. O=C1CN(C(=O)c2sc3c(c2C(F)F)c(=O)n(CCc2ccccc2)c(=O)n3CCC(F)(F)F)CCN1
Data returned: 7

More entries:
Data request: Identify the reported IC50 for the following entry. COC(Cn1c(=O)c2c(C)c(C(=O)N3CCC(O)CC3)sc2n(CCC(F)(F)F)c1=O)c1ccccc1 (single isomer, unassigned; enantiomer 2) [Example 47]
Data returned: 4.4

Data request: Identify the reported IC50 for the following entry. CCCn1c(=O)c2c(C)c(C(=O)N3CCNC(=O)C3)sc2n(CCC(F)(F)F)c1=O
Data returned: 140

Data request: Identify the reported IC50 for the following entry. Cc1c(C(=O)N2CCC(O)CC2)sc2c1c(=O)n(CCc1ccccc1)c(=O)n2CCC(F)(F)F
Data returned: 37

Data request: Identify the reported IC50 for the following entry. Cc1c(C(=O)N2CCC(O)CC2)sc2c1c(=O)n(CCc1cccc(F)c1)c(=O)n2CCC(F)(F)F
Data returned: 52

Data request: Identify the reported IC50 for the following entry. CCn1c(=O)c2c(C)c(C(=O)N3[C@@H]4CC[C@H]3CC(O)C4)sc2n(CCC(F)(F)F)c1=O (stereo partly drawn)
Data returned: 43

Data request: Identify the reported IC50 for the following entry. CCCn1c(=O)c2c(C)c(C(=O)N3CCNC(=O)C3)sc2n(CCOC(F)(F)F)c1=O
Data returned: 65

Data request: Identify the reported IC50 for the following entry. Cc1c(C(=O)N2CCC(O)CC2)sc2c1c(=O)n(CCc1ccccc1F)c(=O)n2CCC(F)(F)F
Data returned: 25

Data request: Identify the reported IC50 for the following entry. O=C(c1cc2c(=O)n(CCc3ccccc3)c(=O)n(CCC(F)(F)F)c2s1)N1CCC(O)CC1
Data returned: 440

Data request: Identify the reported IC50 for the following entry. CCn1c(=O)c2c(C)c(C(=O)N3CCNC(=O)C3)sc2n(CCOC(F)(F)F)c1=O
Data returned: 9

Data request: Identify the reported IC50 for the following entry. CCCn1c(=O)c2c(C)c(C(=O)N3CCC(C)(O)CC3)sc2n(CCOC(F)(F)F)c1=O
Data returned: 8
